- run.description: Example 5: 4-CNAB plasma pharmacokinetics, single oral doses, healthy male volunteers
- Assay type: in vivo, human
- study.conditions: with insulin, 100 Units/450 mg oral
readout.name: 4-CNAB Kel (h⁻¹)
// note: answer is a bare numeric in h⁻¹

Tell me the measured 4-CNAB Kel of O=C(O)CCCNC(=O)c1ccc(Cl)cc1O , please. 0.185

* * *

- run.description: Example 5: 4-CNAB plasma pharmacokinetics, single oral doses, healthy male volunteers
- Assay type: in vivo, human
- study.conditions: male, human, plasma, po, with insulin, 150 Units/100 mg oral
readout.name: AUC(0-t) (ng·h/mL)
// note: answer is a bare numeric in ng·h/mL

Tell me the measured AUC(0-t) of O=C(O)CCCNC(=O)c1ccc(Cl)cc1O [4-CNAB] , please. 4680

* * *

- run.description: Example 8: food effect on 4-CNAB pharmacokinetics, type 1 diabetes patients
- Format: in vivo, human
- study.conditions: human, plasma, oral, period 0-3 hours post-dose; Breakfast 30 min post-dose
readout.name: Cmax (ng/mL)
// note: answer is a bare numeric in ng/mL

Tell me the measured Cmax of O=C(O)CCCNC(=O)c1ccc(Cl)cc1O , please. 24000

* * *

- run.description: Example 5: 4-CNAB plasma pharmacokinetics, single oral doses, healthy male volunteers
- Format: in vivo, human
- study.conditions: male, human, plasma, oral, 1400 mg, Group/Treatment 1/3, 4-CNAB dose 1400, alone; unaudited data
readout.name: AUC (µg·h/mL)
// note: answer is a bare numeric in µg·h/mL

Tell me the measured AUC of O=C(O)CCCNC(=O)c1ccc(Cl)cc1O , please. 144

* * *

- run.description: Example 5: 4-CNAB plasma pharmacokinetics, single oral doses, healthy male volunteers
- Type: in vivo, human
- study.conditions: male, human, plasma, po, 1400 mg, 4-CNAB alone 1400 mg oral
readout.name: AUC(0-t) (µg·h/mL)
// note: answer is a bare numeric in µg·h/mL

Tell me the measured AUC(0-t) of O=C(O)CCCNC(=O)c1ccc(Cl)cc1O , please. 144

* * *

- run.description: Example 5: 4-CNAB plasma pharmacokinetics, single oral doses, healthy male volunteers
- Format: in vivo, human
- study.conditions: male, human, plasma, po, with insulin, 100 Units/450 mg oral
readout.name: AUC(0-inf) (ng·h/mL)
// note: answer is a bare numeric in ng·h/mL

Tell me the measured AUC(0-inf) of O=C(O)CCCNC(=O)c1ccc(Cl)cc1O , please. 26800

* * *

- run.description: Example 5: 4-CNAB plasma pharmacokinetics, single oral doses, healthy male volunteers
- Assay type: in vivo, human
- study.conditions: male, human, plasma, po, with insulin, 100 Units/450 mg oral
readout.name: Cmax (ng/mL)
// note: answer is a bare numeric in ng/mL

Tell me the measured Cmax of O=C(O)CCCNC(=O)c1ccc(Cl)cc1O , please. 23200

* * *

- run.description: Example 5: 4-CNAB plasma pharmacokinetics, single oral doses, healthy male volunteers
- Format: in vivo, human
- study.conditions: with insulin, 100 Units/600 mg oral
- Description: A single center, double-blind, randomized placebo-controlled study undertaken in healthy human subjects in order to assess the safety and tolerability of escalating single oral doses of 4-CNAB capsules and insulin/4-CNAB capsules. […] The concentration of 4-CNAB in plasma was determined using a combination of liquid chromatography and Mass spectrometry assay known as LC-MS/MS. […] The eluting peaks were quantified by MS/MS. […]
readout.name: 4-CNAB Kel (h⁻¹)
// note: answer is a bare numeric in h⁻¹

Tell me the measured 4-CNAB Kel of O=C(O)CCCNC(=O)c1ccc(Cl)cc1O , please. 0.19

* * *

- run.description: Example 5: 4-CNAB plasma pharmacokinetics, single oral doses, healthy male volunteers
- Assay type: in vivo, human
- study.conditions: with insulin, 150 Units/100 mg oral
readout.name: 4-CNAB Kel (h⁻¹)
// note: answer is a bare numeric in h⁻¹

Tell me the measured 4-CNAB Kel of O=C(O)CCCNC(=O)c1ccc(Cl)cc1O [4-CNAB] , please. 0.22

* * *

- run.description: Example 5: 4-CNAB plasma pharmacokinetics, single oral doses, healthy male volunteers
- Format: in vivo, human
- study.conditions: male, human, plasma, po, with insulin, 150 Units/100 mg oral
readout.name: Cmax (µg/mL)
// note: answer is a bare numeric in µg/mL

Tell me the measured Cmax of O=C(O)CCCNC(=O)c1ccc(Cl)cc1O [4-CNAB] , please. 6.2

* * *

- run.description: Example 5: 4-CNAB plasma pharmacokinetics, single oral doses, healthy male volunteers
- Assay type: in vivo, human
- study.conditions: male, human, plasma, po, 400 mg, 4-CNAB alone 400 mg oral; read-out: 4-CNAB tmax, median (range)
readout.name: Tmax (min)
// note: answer is a bare numeric in min

Tell me the measured Tmax of O=C(O)CCCNC(=O)c1ccc(Cl)cc1O , please. 30

* * *

- run.description: Example 5: 4-CNAB plasma pharmacokinetics, single oral doses, healthy male volunteers
- Format: in vivo, human
- study.conditions: male, human, plasma, po, with insulin, 100 Units/450 mg oral; read-out: 4-CNAB Vz/F
readout.name: Vd/F (L)
// note: answer is a bare numeric in L

Tell me the measured Vd/F of O=C(O)CCCNC(=O)c1ccc(Cl)cc1O , please. 101

* * *

- run.description: Example 5: 4-CNAB plasma pharmacokinetics, single oral doses, healthy male volunteers
- Assay type: in vivo, human
- study.conditions: male, human, plasma, po, 400 mg, 4-CNAB alone 400 mg oral
readout.name: AUC(0-t)

Tell me the measured AUC(0-t) of O=C(O)CCCNC(=O)c1ccc(Cl)cc1O [4-CNAB] , please. 22200 ng·h/mL

* * *

- run.description: Example 5: 4-CNAB plasma pharmacokinetics, single oral doses, healthy male volunteers
- Format: in vivo, human
- study.conditions: male, human, plasma, po, with insulin, 150 Units/100 mg oral; read-out: 4-CNAB MRT(0-inf)
readout.name: MRT inf (h)
// note: answer is a bare numeric in h

Tell me the measured MRT inf of O=C(O)CCCNC(=O)c1ccc(Cl)cc1O , please. 2.39

* * *

- run.description: Example 5: 4-CNAB plasma pharmacokinetics, single oral doses, healthy male volunteers
- Type: in vivo, human
- study.conditions: male, human, plasma, oral, 800 mg, Group/Treatment 1/2, 4-CNAB dose 800, alone; unaudited data
readout.name: AUC (ng·h/mL)
// note: answer is a bare numeric in ng·h/mL

Tell me the measured AUC of O=C(O)CCCNC(=O)c1ccc(Cl)cc1O , please. 42700

* * *

- run.description: Example 5: 4-CNAB plasma pharmacokinetics, single oral doses, healthy male volunteers
- Assay type: in vivo, human
- study.conditions: male, human, plasma, po, 1400 mg, 4-CNAB alone 1400 mg oral; read-out: 4-CNAB tmax, median (range)
readout.name: Tmax (min)
// note: answer is a bare numeric in min

Tell me the measured Tmax of O=C(O)CCCNC(=O)c1ccc(Cl)cc1O , please. 45

* * *

- run.description: Example 5: 4-CNAB plasma pharmacokinetics, single oral doses, healthy male volunteers
- Format: in vivo, human
- study.conditions: male, human, plasma, po, 1400 mg, 4-CNAB alone 1400 mg oral; read-out: 4-CNAB Vd/F
readout.name: Vd/F (L)
// note: answer is a bare numeric in L

Tell me the measured Vd/F of O=C(O)CCCNC(=O)c1ccc(Cl)cc1O [4-CNAB] , please. 81

* * *

- run.description: Example 5: 4-CNAB plasma pharmacokinetics, single oral doses, healthy male volunteers
- Format: in vivo, human
- study.conditions: male, human, plasma, po, with insulin, 100 Units/600 mg oral; read-out: 4-CNAB t1/2 (converted)
readout.name: half-life (h)
// note: answer is a bare numeric in h

Tell me the measured half-life of O=C(O)CCCNC(=O)c1ccc(Cl)cc1O , please. 4.1

* * *

- run.description: Example 5: 4-CNAB plasma pharmacokinetics, single oral doses, healthy male volunteers
- Format: in vivo, human
- study.conditions: male, human, plasma, po, 800 mg, 4-CNAB alone 800 mg oral; read-out: 4-CNAB t1/2 (converted)
readout.name: half-life (h)
// note: answer is a bare numeric in h

Tell me the measured half-life of O=C(O)CCCNC(=O)c1ccc(Cl)cc1O , please. 5.9

* * *

- run.description: Delivery agent plasma concentrations in humans after oral delivery agent capsules
- Format: in vivo, human
- study.conditions: plasma; oral capsules, 800 mg, healthy human volunteers
readout.name: AUC
# output: numeric value plus its unit

Tell me the measured AUC of O=C(O)CCCNC(=O)c1ccc(Cl)cc1O , please. 47500 ng·h/mL

* * *

- run.description: Example 8: food effect on 4-CNAB pharmacokinetics, type 1 diabetes patients
- Assay type: in vivo, human
- study.conditions: human, plasma, oral, period 0-20 minutes post-dose; Fasting
readout.name: AUC (ng·h/mL)
// note: answer is a bare numeric in ng·h/mL

Tell me the measured AUC of O=C(O)CCCNC(=O)c1ccc(Cl)cc1O , please. 2900
